- subject of test: Tyrosinase (Agaricus bisporus)
- assay protocol: Inhibition of mushroom tyrosinase using tyrosine as substrate pretreated for 5 mins followed by substrate addition measured after 20 mins by ELISA
Calls of active or inactive are those of the source. No cut-off for these calls is given here.
Your reply should match one of these outcome classes. active, inactive

O=c1cc[nH]c(=O)[nH]1    active
COc1ccc(C(C)=O)cc1OC    inactive
O=C(/C=C/c1ccc(O)cc1)NCCc1ccc(O)cc1    active
NC(=O)/C=C/c1ccc(O)cc1    active
CC1(C)C[C@@H](O)C[C@]2(C)OC(=O)C=C12    inactive

Prompt: So what was the verdict on `COc1cc2oc(=O)ccc2cc1O` in this test?
Response: active

Prompt: Outcome? `CCOC(C)=O`
Response: active

Prompt: I would be grateful if you could indicate the recorded call for `O=C(O)c1ccccc1` .
Response: active
